- Tested on: HCT116 cells
- experiment: Cell viability assay (CellTiter-Glo, 72 hours) in HCT116 human colorectal cancer cells
- Format: cell-based
- test conditions: Homo sapiens, HCT-116; read-out: IC50s (cellular activity of MM017 derivatives)
pIC50: −log10 of the molar value.

>  <smiles entry>
COCCN1C(=O)c2ccccc2Sc2cc(NC(=O)c3ccc(OC)cc3)ccc21

>  <pIC50>
6.44

$$$$
>  <smiles entry>
COCCN1C(=O)c2ccccc2Sc2cc(NC(=O)c3ccccc3OC)ccc21

>  <pIC50>
4.89

$$$$
>  <smiles entry>
COCCN1C(=O)c2ccccc2Sc2cc(NC(=O)c3ccc(OC(F)(F)F)cc3)ccc21

>  <pIC50>
5.68

$$$$

* * *

Readings of IC50 for the listed compounds
- System: HCT116 cells
- experiment: Cell viability assay (CellTiter-Glo, 72 hours) in HCT116 human colorectal cancer cells
- Assay type: cell-based
- test conditions: Table 8; analogs of scaffold drawing 43 defined by R^2, R^3, X/Y, W; read-out: Activity (IC50 class, cell viability assay)

>  <compound>
CC#CCN1C(=O)c2ccccc2Sc2cc(NC(=O)C3CCN(C)C3=O)ccc21 (stereo not shown)

>  <IC50>
500 to 1000 nM

$$$$
>  <compound>
COC12CC(C(=O)Nc3cnc4c(c3)Sc3ccc(F)cc3C(=O)N4CC#CC3CC3)(C1)C2

>  <IC50>
< 500 nM

$$$$
>  <compound>
CC#CCN1C(=O)c2cc(F)ccc2Sc2cc(NC(=O)[C@H]3C[C@@H](OC)C3)ccc21 [—CH2CCMe; cis-3-MeOcBu; CH/CF; CH]

>  <IC50>
< 500 nM

$$$$
>  <compound>
CC#CCN1C(=O)c2cc(F)ccc2Sc2cc(NC(=O)C3CC4(CC(=NO)C4)C3)cnc21 (stereo not shown)

>  <IC50>
< 500 nM

$$$$

* * *

Readings of IC50 for the listed compounds
- Tested on: HCT116 cells
- experiment: Cell viability assay (CellTiter-Glo, 72 hours) in HCT116 human colorectal cancer cells
- Type: cell-based
- test conditions: Table 7; cell viability assay, CellTiter-Glo, 72 hours; scaffold drawing 42 with R^2, R^3, X/Y, Z; read-out: Activity

>  <compound>
CCCOc1ccc(C(=O)Nc2ccc3c(c2)Sc2ccccc2C(=O)N3CCOC)cc1 [—(CH2)2OMe; 4-PrOPh; CH/CH; S]

>  <target or test system>
HCT116 cells

>  <IC50>
1 to 5 µM

$$$$
>  <compound>
COCCN1C(=O)c2ccccc2Sc2cc(NC(=O)c3cccc(Cl)c3)ccc21 [—(CH2)2OMe; 3-ClPh; CH/CH; S]

>  <target or test system>
HCT116 cells

>  <IC50>
1 to 5 µM

$$$$
>  <compound>
C#CCOCCN1C(=O)c2ccccc2Sc2cc(NC(=O)c3ccc(N=[N+]=[N-])cc3)ccc21 [—(CH2)2OCH2CCH; 4-N3Ph; CH/CH; S]

>  <target or test system>
HCT116 cells

>  <IC50>
< 0.5 µM

$$$$
>  <compound>
COCCN1C(=O)c2ccccc2Sc2cc(NC(=O)c3ccc(OC(F)F)c(F)c3)ccc21 [—(CH2)2OMe; 3-F,4-F2HCOPh; CH/CH; S]

>  <target or test system>
HCT116 cells

>  <IC50>
1 to 5 µM

$$$$
